Parameter yeast fitness: see the listing below.
B1: tRNA (parent)
chain: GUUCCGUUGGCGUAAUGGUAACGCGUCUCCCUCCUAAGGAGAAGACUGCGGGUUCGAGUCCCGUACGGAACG

- Variants of: B1
- TEST DESCRIPTION: yeast fitness relative to wild type (ratio to wild type); higher = fitter; tRNA-Arg(CCU), competitive growth, 37 C, YPD
This sample holds only a part of the variants without activity.

Lookup: Give reported yeast fitness value for GUUCCGUUGGCGUCAUGGUAACGAGUCUCCCUCCUAAGGAGAAGACUGCGGGUUCGAGUCACGUACGGAACG
Found: ≤ 0.5

Lookup: For GUUCCGUUGGCGUAAUGGUAACGCGUCUCCCUCCUAAGGAGAAGACUGAGGGUUCGAGUCCCCUACGGGACG , write its yeast fitness.
Found: ≤ 0.5

Lookup: Tell us which yeast fitness value is on record for GUUUCGUUGGCGUGAUGGUAACGCGUCUCCCUCCUCAGGAGAAGAGUGCGGGUUCGAGUCCUGUACGGAACG
Found: ≤ 0.5

Lookup: Give reported yeast fitness value for GUUCCGUUGGCGUAAUGGUAAGGCGUGUGCCUCAUAAGGAGAUGACUGCGGGUUCGAGUCCCGUACGGAACG
Found: ≤ 0.5

Lookup: // fetch yeast fitness given entry GUUCCGUUGGCGUACUGGUAACGCGUCUCCCUCCUGAGGAGAAGACCGCGGGUUAGAGUCCCGUACGGAACG
Found: ≤ 0.5

Lookup: Read the entry GUUUCGUUGGCGUAAUGGUAACGGGACGCCCUCCUAAGGAGAAGACUGCGGGUUCGAGUCCCGUUCGGAACG and write its reported yeast fitness.
Found: ≤ 0.5

src = the RNAGym collection of RNA variant scans (doi:10.1126/science.aae0568)
